Exercise: for every item that follows, state its recorded IC50.
# tested_target: Cyclin-dependent kinase 2/cyclin E (Homo sapiens)
# experiment_notes: Inhibitory activity against Cyclin E-cyclin-dependent kinase 2 in enzymatic assay by measuring phosphorylation of RbING

Query block: Bench note: what IC50 did Cn1ccc2ccc3c4[nH]c5ccc(F)cc5c4c4c(c3c21)C(=O)NC4=O show?
Result block: > 0.2 µM

Query block: # iterate: COc1ccc2[nH]c3c4ccc5ccn(C)c5c4c4c(c3c2c1)C(=O)NC4=O
Result block: > 2 µM

Query block: How about Cc1cc2ccn(C)c2c2c3c(c4c5ccc(C(F)(F)F)cc5[nH]c4c12)C(=O)NC3=O ?
Result block: > 2 µM

// provenance: ChEMBL document CHEMBL1136094
